subjectOfTest: IL16_4, Q14005
Sequence (Q14005 1229-1329): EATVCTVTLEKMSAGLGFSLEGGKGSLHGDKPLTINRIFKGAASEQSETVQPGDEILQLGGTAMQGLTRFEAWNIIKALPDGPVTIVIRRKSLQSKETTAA
assayNotes: holdup assay
Set-up: key: below the threshold = too weak to quantify, mostly under pKd 3.1 to 4
measurementSetup: plain residues with an end cap or a label only (N-terminal biotin on a linker: ttds)
recordedMetric: pKd

Please review the following examples before continuing.
binder | reported
GQDSREETQL [KCNT2, Q6UVM3] | below the threshold
TVASEKESVM [SLC1A5, Q15758] | below the threshold
RSLEEEESQL [GRASP, Q7Z6J2] | 3.54
IYVPEAQTRL [DLGAP4, Q9Y2H0] | below the threshold

Please look at the following binder next.
# input Recall and state the measured pKd for SRPQRTQTQV [HPV67-E6, A4U7F2] .
# output below the threshold
